Test target: Glc(a1-4)Glc
Run description: glycan array binding signal (z-score within array); higher = stronger binding
Experimental context: glycan notation: IUPAC condensed, linker removed
The entries come from a sample that favours the strongest signals as a whole.
Parameter measured: glycan array binding signal (z-score)

1) EUL D1A second (Oryza sativa) (protein) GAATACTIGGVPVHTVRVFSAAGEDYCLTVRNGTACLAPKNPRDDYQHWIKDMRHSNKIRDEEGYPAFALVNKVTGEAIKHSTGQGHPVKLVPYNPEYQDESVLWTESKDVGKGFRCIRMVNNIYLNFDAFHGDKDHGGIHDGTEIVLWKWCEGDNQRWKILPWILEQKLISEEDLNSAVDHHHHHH    0.317
2) ECA (Erythrina cristagalli), P83410 (protein) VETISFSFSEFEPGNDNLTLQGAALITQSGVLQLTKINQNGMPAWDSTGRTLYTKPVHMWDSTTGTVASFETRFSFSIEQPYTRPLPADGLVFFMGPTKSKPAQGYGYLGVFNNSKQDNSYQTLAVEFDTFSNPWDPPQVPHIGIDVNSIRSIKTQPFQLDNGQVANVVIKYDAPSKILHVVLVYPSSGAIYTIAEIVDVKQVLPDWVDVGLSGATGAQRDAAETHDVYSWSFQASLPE    -0.148
3) PhypaEULS3 (Physcomitrella patens) (protein) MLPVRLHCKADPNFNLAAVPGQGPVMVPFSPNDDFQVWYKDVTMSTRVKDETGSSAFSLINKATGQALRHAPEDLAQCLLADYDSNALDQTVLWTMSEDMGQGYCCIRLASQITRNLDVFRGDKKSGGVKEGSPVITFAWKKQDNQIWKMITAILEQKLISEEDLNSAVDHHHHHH    -0.811
4) Dectin-1 (Homo sapiens), Q9BXN2 (protein) TMAIWRSNSGSNTLENGYFLSRNKENHSQPTQSSLEDSVTPTKAVKTTGVLSSPCPPNWIIYEKSCYLFSMSLNSWDGSKRQCWQLGSNLLKIDSSNELGFIVKQVSSQPDNSFWIGLSRPQTEVPWLWEDGSTFSSNLFQIRTTATQENPSPNCVWIHVSVIYDQLCSVPSYSICEKKFSM    -0.145
5) SSL (Salmo salar) (protein) TGAKGAEEGVVPAETRNQCPTGWFQFGSRCFMFVETARSWPLAERHCVSLGANLASVHSSADDQFLQAIAGCKTGAFSTTWIGGFDAVQDRLWFWSDGSEFDYQNWAKGEPNNSGGREPCIVINWGDEYRWNDIKCGNSFPSVCSKRICEIQKN    2.63
6) CLECSF8 (Mus musculus), Q9Z2H6 (protein) HYFLRWTRGSVVKLSDYHTRVTCIREEPQPGATGGTWTCCPVSWRAFQSNCYFPLNDNQTWHESERNCSGMSSHLVTINTEAEQNFVTQLLDKRFSYFLGLADENVEGQWQWVDKTPFNPHTVFWEKGESNDFMEEDCVVLVHVHEKWVWNDFPCHFEVRRICKLPGITFNWKPSK    0.06
7) EULS2 M3 (Oryza sativa) (protein) MVYCRANPNYAMTARNGAVVLAPANPKDEYQHWIKDMRWSTSIKDEEGYPAFALVNKATGQAIKHSLGQSHPVRLVPYNPEVMDESVLWTESRDVGNGFRCIRMVNNIYLNFDAFHGDKYHGGVRDGTDIVLWKLCEGDSLRWKIQPYYILEQKLISEEDLNSAVDHHHHHH    0.668
8) GALT1 615 (Arabidopsis thaliana), Q8L7F9 (protein) DPMRGSHHHHHHGMASMTGGQQMGRDLYDDDDKSRLQKPYITAAASVVVTPNTTLPMEWLRITLPDFMKEARNTQEAISGDDIAVVSGLFVEQNVSKEEREPLLTWNRLESLVDNAQSLVNGVDAIKEAGIVWESLVSAVEAKKLVDVNENQTRKGKEELCPQFLSKMNATEADGSSLKLQIPCGLTQGSSITVIGIPDGLVGSFRIDLTGQPLPGEPDPPIIVHYNVRLLGDKSTEDPVIVQNSWTASQDWGAEERCPKFDPDMNKKVDDLDECNKMVGGEINRTSSTSLQSNTSRGVPVAREASKHEKYFPFKQGFLSVATLRVGTEGMQMTVDGKHITSFAFRDTLEPWLVSEIRITGDFRLISILA    3.74
9) Langerin K299A/K313A (Homo sapiens), Q9UJ71 (protein) STLNAQIPELKSDLEKASALNTKIRALQGSLENMSKLLKRQNDILQVVSQGWKYFKGNFYYFSLIPKTWYSAEQFCVSRNSHLTSVTSESEQEFLYKTAGGLIYWIGLTKAGMEGDWSWVDDTPFNKVQSARFWIPGEPNNAGNNEHCGNIAAPSLQAWNDAPCDATFLFICKRPYVPSEP    -0.103
10) his-Lectin-24A (Drosophila melanogaster) (protein) MFRLSVLVLNLLLVSHEFSAGTAKIEIQPLPALCNGYCFPTLKPVMEYVAIHQDKWNTCTEILANEARKDQIQLNIQLDALKADVSNIKASQLSKDEKLDRMEREQFAMHESLETINRYLTVKLDRTKLQLEAIKNTMDYMKAQMDGYFSAINGVQCLQPGFEKIGDRYFYIEEDVELNWLDAQAKCRRMGGHLASIKTKQEFDAIVEKLDDSKSYFLGVNENTKTGDFVSAASGKSCLYHEWGPGEPHHNNDQERCVSILRKLMHVGNCTYEKRFICQYGI    -0.592
